target: Nuclear receptor subfamily 1 group D member 1 (Homo sapiens) (UniProt P20393); test: modulators of Rev-erb alpha DNA binding, primary screen, biochemical, FITC-DNA, fluorescence polarization, uHTS (AID 1259318); settings: Rev-erbα–FITC-DNA binding, 90 min, at 10 µM, stronger effect = higher value;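 also: 0% = DMSO wells with 35 nM protein and 100% = DMSO wells with 750 nM protein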
Sequence (P20393 whole entry, looked up): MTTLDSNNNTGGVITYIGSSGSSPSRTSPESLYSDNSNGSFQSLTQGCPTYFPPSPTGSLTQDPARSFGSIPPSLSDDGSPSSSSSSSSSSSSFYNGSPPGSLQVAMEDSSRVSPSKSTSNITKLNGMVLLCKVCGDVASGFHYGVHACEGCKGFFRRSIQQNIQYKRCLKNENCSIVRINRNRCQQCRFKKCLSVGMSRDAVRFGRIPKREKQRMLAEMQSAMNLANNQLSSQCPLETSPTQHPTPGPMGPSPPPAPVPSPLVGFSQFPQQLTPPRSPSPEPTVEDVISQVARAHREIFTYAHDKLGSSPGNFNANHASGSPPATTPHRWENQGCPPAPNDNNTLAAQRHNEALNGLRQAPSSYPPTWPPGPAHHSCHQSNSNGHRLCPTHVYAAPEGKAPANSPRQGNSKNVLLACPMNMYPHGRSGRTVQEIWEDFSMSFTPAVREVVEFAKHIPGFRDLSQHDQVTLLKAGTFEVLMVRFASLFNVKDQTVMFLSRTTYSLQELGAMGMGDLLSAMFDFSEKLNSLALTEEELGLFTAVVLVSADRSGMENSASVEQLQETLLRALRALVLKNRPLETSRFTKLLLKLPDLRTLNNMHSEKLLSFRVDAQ
Out of some 370,000 compounds screened, about 3,000 (0.81%) were called active. What follows is part of a selection rich in actives, with near analogues and random picks from the rest.
QUANTITY: activity (%)
Numbers only; they are read as %.

Please review the entries below; each comes with its answer.
* COC(=O)Nc1nc2ccc(C(=O)C3CC3)cc2[nH]1 | -10.6
* COC(=O)c1c(NC(C)=O)sc(C(=O)Nc2ccccc2OC)c1C | 32.9
* C[C@H]1O[C@@H](O[C@H]2[C@@H](O)C[C@H](O[C@H]3[C@@H](O)C[C@H](O[C@H]4CC[C@]5(C)C6C[C@@H](O)[C@]7(C)[C@@H](C8=CC(=O)OC8)CC[C@]7(O)C6CC[C@@H]5C4)O[C@@H]3C)O[C@@H]2C)C[C@H](O)[C@@H]1O (some centres not stated) | 2.73
* CCOC(=O)CSc1nc2ccc(C)cc2n2cnnc12 | 1.03
* COc1ccc(CCNc2cc(C)nc3c(-c4ccc(Cl)cc4)c(C)nn23)cc1OC | 7

Please supply the value of reported activity for the item `CCOC(=O)N1CCN(c2cc(C)c([N+](=O)[O-])cc2F)CC1`
-1.95

Please supply the value of reported activity for the item O=C(CCc1nnc2ccc(NCc3ccccc3Cl)nn12)NCC1CCN(C2CCCC2)C1 (configuration not stated)
-21.6

Please supply the value of reported activity for the item `Cn1c(=O)n(C)c2cc(/C=N/NC(=O)c3cccc(Br)c3)ccc21`
49.2

Please supply the value of reported activity for the item CCCC1CCC2(CCCN2CCOC(=O)NCc2ccccc2)CC1 (configuration not stated)
4.94

Please supply the value of reported activity for the item `Nn1c(SCC(=O)Nc2cccc3ccccc23)nnc1-c1cc(-c2ccc(F)cc2)n[nH]1`
0.84

Please supply the value of reported activity for the item N#Cc1c(N)nc2c3c(sc(=N)c2c1N)NC(=O)CC3c1ccccc1Cl (configuration not stated)
31.7

Please supply the value of reported activity for the item CCCC(=O)Nc1ncnc2c1ncn2C1O[C@@H]2COP(=O)(O)O[C@H]2[C@H]1OC(=O)CCC (some centres not stated)
-3.72

Please supply the value of reported activity for the item `O=C(Cn1c(=O)sc2ccccc21)Nc1ccc2c(c1)OCCO2`
2.42

Please supply the value of reported activity for the item CCCC1O[C@@H]2CC3C4CCC5=CC(=O)C=CC5(C)C4[C@@H](O)CC3(C)[C@]2(C(=O)CO)O1 (some centres not stated)
3.39

Please supply the value of reported activity for the item `C=CCn1c(=NC(=O)c2ccc(S(=O)(=O)N3CCCC3)cc2)sc2cc(NC(C)=O)ccc21`
51.5

Please supply the value of reported activity for the item NC(=O)CC(NC(=O)Cc1ccc(Br)cc1)c1ccc(NC2CC3CCC2C3)c([N+](=O)[O-])c1 (configuration not stated)
-0.82

Please supply the value of reported activity for the item `Cc1ccc(-n2c(COc3ccccc3)nnc2SCC(=O)Nc2ccc3c(c2)OCCO3)cc1`
1.23

---

activity values for the compounds below.
target: Nuclear receptor subfamily 1 group D member 1 (Homo sapiens) (UniProt P20393); assay: modulators of Rev-erb alpha DNA binding, primary screen, biochemical, FITC-DNA, fluorescence polarization, uHTS (AID 1259318); details: Rev-erbα–FITC-DNA binding, 90 min, at 10 µM, stronger effect = higher value;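 also: 0% = DMSO wells with 35 nM protein and 100% = DMSO wells with 750 nM protein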
Screen size: about 370,000 compounds; about 3,000 (0.81%) were called active. The list comes from a sample in which actives are over-represented; it also holds close analogues and randomly drawn compounds.
Numbers only; they are read as %.

Please review the entries below; each comes with its answer.
• COc1cc(/C=C/C(=O)n2cnc3ccccc32)cc(OC)c1OC = 11.5
• CN1CCc2nc(SC(C(=O)O)c3ccccc3)c(C#N)c(-c3cccs3)c2C1 (centres undefined) = -2.52

Please supply the value of reported activity for the item CC(C)C(C)(C#N)NC(=O)CSc1nncn1-c1ccccc1 (centres undefined)
3.69

Please supply the value of reported activity for the item `S=C1Nc2cc(Cl)ccc2Sc2ccccc21`
-3.11

---

biological target: Nuclear receptor subfamily 1 group D member 1 (Homo sapiens) (UniProt P20393); assay: modulators of Rev-erb alpha DNA binding, primary screen, biochemical, FITC-DNA, fluorescence polarization, uHTS (AID 1259318); conditions: Rev-erbα–FITC-DNA binding, 90 min, at 10 µM;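 also: 0% = DMSO wells with 35 nM protein and 100% = DMSO wells with 750 nM protein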
About 3,000 (0.81%) of roughly 370,000 compounds were called active.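 The calls were made as follows: active = activity above about 14% (limit read from the data; passing the limit was not always enough); inactive = the rest.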 For the sample, actives were picked, then their nearest neighbours and some compounds at random.
Outcomes you can answer with include only these: active, inactive

Below are worked cases with known answers.
* CCOc1ccc(C(=O)Nc2nccs2)cc1[N+](=O)[O-] | inactive
* O=C(COc1ccc2ccccc2c1)N1CCN(C(=O)c2cccs2)CC1 | inactive
* COC(=O)c1ccc(OCC(O)CN(CCO)CC(O)Cn2ccc3ccccc32)cc1 (stereo unspecified) | inactive
* Cc1cccc([C@@H]2[C@@H]3C(=O)N(C)C(=O)[C@@H]3[C@@H]3C(=O)Nc4ccccc4C(=O)N23)c1 | inactive

How was `COc1cc(OC)cc(-c2c(C#Cc3ccsc3)c3cc(-c4ccc(OC)cc4F)ccc3n2C)c1` classified in this test?
inactive

How was Cc1ccc(C(=O)NC(C)C(c2cccs2)N2CCOCC2)cc1C (stereo unspecified) classified in this test?
inactive

How was `COCCn1c(C)cc(C(=O)COC(=O)/C=C/c2cccc(OC)c2)c1C` classified in this test?
inactive

---

target: Nuclear receptor subfamily 1 group D member 1 (Homo sapiens); assay: modulators of Rev-erb alpha DNA binding, primary screen, biochemical, FITC-DNA, fluorescence polarization, uHTS (AID 1259318); details: Rev-erbα–FITC-DNA binding, 90 min, at 10 µM, stronger effect = higher value;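 also: 0% = DMSO wells with 35 nM protein and 100% = DMSO wells with 750 nM protein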
Among all 370,000 compounds or so, about 3,000 (0.81%) were called active. The list comes from a sample in which actives are over-represented; it also holds close analogues and randomly drawn compounds.
QUANTITY: activity (%)
Numbers only; they are read as %.

Please review the entries below; each comes with its answer.
• CCOC(=O)c1cn[nH]c1NC(=S)Nc1ccccc1 = -3.54
• Cc1ccc(N=C2NC(=O)c3cccc([N+](=O)[O-])c32)cc1 = -0.93
• COc1cc2c(cc1OC)[C@@H](Cc1cc(OC)c(OC)c(OC)c1)[N+](C)(CCCOC(=O)CC/C=C/CCC(=O)OCCC[N+]1(C)CCc3cc(OC)c(OC)cc3[C@H]1Cc1cc(OC)c(OC)c(OC)c1)CC2 (some centres undefined) = 4.74
• CCOc1ccc(C)cc1S(=O)(=O)NC1CCCCCC1 = 4.62
• NC(=O)c1ncn([C@@H]2O[C@H](C(=O)O)[C@@H](O)[C@H]2O)n1 = -0.1
• O=C(CN1CCC(NC(=O)C2CC2)CC1)Nc1ccccc1[N+](=O)[O-] = -2.64
• Cc1ccc(-n2c(SCC(=O)NCCC3=CCCCC3)nc3n[nH]c(C)c3c2=N)cc1Cl = 34.3
• Cc1ccccc1NC(=O)C1CCN(c2ncccn2)CC1 = 4.79
• CCOC(=O)C1=C(c2ccccc2)O/C(=C(/C(=O)OC)C(F)(F)F)S1 = 23.2
• Cc1nnc(OCC(=O)NCCC2=CCCCC2)c2ccccc12 = -2.75

For Nuclear receptor subfamily 1 group D member 1 (Homo sapiens), give the measured activity of the entry `Cc1cc(C#N)c(SCC(N)=O)nc1-c1ccc(F)cc1`
-0.55

For Nuclear receptor subfamily 1 group D member 1 (Homo sapiens), give the measured activity of the entry `Cc1ccc(NC(=O)CSc2sc3c(O)cc(=O)[nH]c3c2C#N)cc1C`
-17.5

---

target: Nuclear receptor subfamily 1 group D member 1 (Homo sapiens) (UniProt P20393); assay: modulators of Rev-erb alpha DNA binding, primary screen, biochemical, FITC-DNA, fluorescence polarization, uHTS (AID 1259318); details: Rev-erbα–FITC-DNA binding, 90 min, at 10 µM, stronger effect = higher value;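 also: 0% = DMSO wells with 35 nM protein and 100% = DMSO wells with 750 nM protein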
Out of some 370,000 compounds screened, about 3,000 (0.81%) were called active. This excerpt belongs to a sample that is enriched for actives.
QUANTITY: activity

* O=C(CSc1ccc(-c2ccc(F)cc2)nn1)Nc1ccc2c(c1)OCCO2 | -5.86% (inactive)
* CN(C(=O)CSc1nnc(-c2ccc(C(C)(C)C)cc2)n1C)C1CCS(=O)(=O)C1 (centres undefined) | -0.03% (inactive)
* c1ccc2c(-c3nn4nnnc4c4ccccc34)cccc2c1 | 28.7% (active)
* CC(=O)c1cc2c(cc1NC(=O)Cn1nc(-c3ccc(F)cc3)ccc1=O)OCO2 | 1.35% (inactive)
* CCN(CC)S(=O)(=O)c1ccc(C(=O)N2CCN(C3=NS(=O)(=O)c4ccccc43)CC2)cc1 | -1.88% (inactive)
* CN(C)S(=O)(=O)c1ccc(NC(=O)COC(=O)c2n[nH]c3ccccc23)cc1 | 1.34% (inactive)

Please supply the value of reported activity for the item `COc1cc(OC)c2c(-c3cccc(-c4cccc(N)c4)c3)cc(=O)oc2c1`
-9.12% (inactive)

Please supply the value of reported activity for the item `CCOc1cccc(NC(=O)Cn2nc(-c3ccc4c(c3)OCCO4)ccc2=O)c1`
52.4% (active)

Please supply the value of reported activity for the item `CC(=O)NCc1ccc(S(=O)(=O)NC2CCN(Cc3ccccc3)CC2)cc1`
-1.17% (inactive)
